- MEASUREMENT TARGET: Prostacyclin receptor (Homo sapiens)
- Sequence (P43119 whole entry): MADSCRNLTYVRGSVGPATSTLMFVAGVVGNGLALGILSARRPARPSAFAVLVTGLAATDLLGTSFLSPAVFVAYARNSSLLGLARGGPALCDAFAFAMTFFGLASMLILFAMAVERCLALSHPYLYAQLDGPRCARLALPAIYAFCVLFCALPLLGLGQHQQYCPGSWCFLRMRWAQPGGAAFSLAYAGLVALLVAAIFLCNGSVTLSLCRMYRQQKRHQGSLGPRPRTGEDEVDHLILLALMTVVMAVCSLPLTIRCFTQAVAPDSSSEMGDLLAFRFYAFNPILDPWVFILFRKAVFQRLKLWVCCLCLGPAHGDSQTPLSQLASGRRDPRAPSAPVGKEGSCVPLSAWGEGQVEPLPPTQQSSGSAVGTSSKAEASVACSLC
Here, each record is paired with measured Ki data.

Here's what some known entries look like.
INSERT INTO assay_data (molecule, result) VALUES
  ('O=C(CCc1ccncc1)NNC(=O)N1Cc2ccccc2Oc2ccc(Cl)cc21', '> 10 µM'),
  ('CCCCC[C@H](O)/C=C/[C@H]1[C@H](O)CC(=O)[C@@H]1C/C=C\CCCC(=O)O', '> 10 µM'),
  ('O=C(O)CCC/C=C\C[C@@H]1[C@@H](/C=C/[C@@H](O)COc2cccc(Cl)c2)[C@H](O)C[C@@H]1O', '> 10 µM'),
  ('O=C(O)CCCCCCc1c(O)[nH]c(=O)n1CCC(O)C1CCCCC1 (configuration not stated)', '> 10 µM');

Problem: Prostacyclin receptor (Homo sapiens) / Ki / CC(C)OC(=O)CCC/C=C\C[C@@H]1[C@@H](CC[C@@H](O)CCc2ccccc2)[C@H](O)C[C@@H]1O : value?
Solution: > 10 µM

Problem: Prostacyclin receptor (Homo sapiens) / Ki / CCCCC(C)(O)CC=CC1C(O)CC(=O)C1CCCCCCC(=O)OC (configuration not stated) : value?
Solution: > 10 µM

Problem: Prostacyclin receptor (Homo sapiens) / Ki / O=C1CCC(CCC(=CCC(C(=O)O)N2CCOCC2)OCc2ccc(-c3ccccc3)cc2)C1 (single isomer, unassigned; (-)) : value?
Solution: > 10 µM

###

Heads up, these molecules all have Ki values measured for Prostaglandin E2 receptor EP3 subtype (Homo sapiens).
MEASUREMENT TYPE: Ki (nM)

INSERT INTO results (molecule, quantitative_readout) VALUES
  ('CCCC1([C@H](O)C/C=C/[C@H]2[C@H](O)CC(=O)[C@@H]2CCCCCCC(=O)OC)CCC1 [(R)-BUTAPROST]', 1640),
  ('CC(C)OC(=O)CCC/C=C\C[C@@H]1[C@@H](CC[C@@H](O)CCc2ccccc2)[C@H](O)C[C@@H]1O', 6500),
  ('CCCCCC(O)CC=C1C(=O)C=CC1CC=CCCCC(=O)O (configuration not stated)', 421);

A: COC(=O)CCC=C=CCC1C(=O)CC(O)C1C=CC(O)COc1ccccc1 (configuration not stated)
B: CS(=O)(=O)NC(=O)CCCC=CCC1C(=O)CC(O)C1C=CC(O)COc1ccccc1 (configuration not stated)
Problem: So which one has the bigger Ki here, A or B ? # answer = label of selected item
Solution: A
(A: 12 nM, B: 0.35 nM)

###

Heads up, these compounds all have pKi values measured for Prostaglandin E2 receptor EP2 subtype (Homo sapiens, UniProt P43116).
pKi: −log10 of the molar value.
MEASUREMENT TYPE: pKi

INSERT INTO results (compound, measurement_target, measurement_type, quantitative_readout) VALUES
  ('O=C(O)CCCCCCc1c(O)[nH]c(=O)n1CCC(O)C1CCCCC1 (stereo not drawn)', 'Prostaglandin E2 receptor EP2 subtype (Homo sapiens, UniProt P43116)', 'pKi', 6.66);

P: CCCC1([C@H](O)C/C=C/[C@H]2[C@H](O)CC(=O)[C@@H]2CCCCCCC(=O)OC)CCC1 [(R)-BUTAPROST]
Q: O=C(O)CCCCCCC1C(=O)CCC1C=CC(O)COc1ccccc1 (stereo not drawn)
R: CC#CCC(C)[C@H](O)/C=C/[C@@H]1[C@H]2C/C(=C/CCCC(=O)O)C[C@H]2C[C@H]1O (stereo partly drawn)
Problem: Would you mind ranking these compounds by ascending pKi? Give the order by naming the labels one after another as requested.
Solution: R, Q, P

###

- MEASUREMENT TARGET: Prostaglandin E2 receptor EP1 subtype (Homo sapiens, UniProt P34995)
MEASUREMENT TYPE: Ki (nM)

INSERT INTO measurements (compound, quantitative_readout) VALUES
  ('O=C(CCc1ccncc1)NNC(=O)N1Cc2ccccc2Oc2ccc(Cl)cc21 [CAS_146033-02-5]', 1330);

P: O=C(O)CCC/C=C\C[C@@H]1[C@@H](/C=C/[C@@H](O)COc2cccc(Cl)c2)[C@H](O)C[C@@H]1O [CLOPROSTENOL]
Q: CC(C)Oc1ccc2c(=O)c3cc(C(=O)O)ccc3oc2c1 [CAS_33458-93-4]
Problem: Input pair: P , Q . Output: entry with lower Ki. # answer = label of selected item
Solution: P
(P: 815 nM, Q: 1220 nM)

###

Heads up, these compounds all have pKi values measured for Prostaglandin D2 receptor (Homo sapiens, UniProt Q13258).
pKi: −log10 of the molar value.
MEASUREMENT TYPE: pKi

INSERT INTO measurements (compound, quantitative_readout) VALUES
  ('O=C1CCC(CCC(=CCC(C(=O)O)N2CCOCC2)OCc2ccc(-c3ccccc3)cc2)C1 (single isomer, unassigned; (-)) [CAS_54751]', 6.16),
  ('O=C(O)CCCCCCc1c(O)[nH]c(=O)n1CCC(O)C1CCCCC1 (centres undefined) [NSC_3080928]', 9.40),
  ('CCC#CCC(C)C(O)C#CC1C(O)CC2CC(=CCOCC(=O)O)CC21 (centres undefined) [CAS_94079-80-8]', 5.87);

A: CCCCC[C@H](O)/C=C/[C@H]1[C@H](O)CC(=O)[C@@H]1C/C=C\CCCC(=O)O [DINOPROSTONE]
B: O=C(O)CCCC=CCC1C(Cl)CC(O)C1C=CC(O)C1CCCCC1 (centres undefined) [NSC_5311503]
Problem: Input pair: A , B . Output: entry with lower pKi. # answer = label of selected item
Solution: A

###

- MEASUREMENT TARGET: Prostaglandin E2 receptor EP1 subtype (Homo sapiens, UniProt P34995)
- Sequence (P34995 whole entry): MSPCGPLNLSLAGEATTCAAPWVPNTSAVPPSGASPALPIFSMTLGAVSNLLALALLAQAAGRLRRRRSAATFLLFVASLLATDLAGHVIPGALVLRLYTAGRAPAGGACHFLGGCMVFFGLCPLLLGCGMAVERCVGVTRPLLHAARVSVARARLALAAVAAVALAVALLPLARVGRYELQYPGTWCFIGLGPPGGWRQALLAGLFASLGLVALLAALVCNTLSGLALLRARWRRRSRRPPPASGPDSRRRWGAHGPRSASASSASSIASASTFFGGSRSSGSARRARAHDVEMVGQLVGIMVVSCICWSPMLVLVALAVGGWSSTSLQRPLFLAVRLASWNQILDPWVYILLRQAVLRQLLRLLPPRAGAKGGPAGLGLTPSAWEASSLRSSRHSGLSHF
pKi: −log10 of the molar value.
MEASUREMENT TYPE: pKi

INSERT INTO results (compound, quantitative_readout) VALUES
  ('O=C(CCCC=CCC1C(=O)CC(O)C1OCC(O)COc1ccccc1)Oc1ccc(NC(=O)c2ccccc2)cc1 (stereo not drawn)', 6.48),
  ('CCC#CCC(C)C(O)C#CC1C(O)CC2CC(=CCOCC(=O)O)CC21 (stereo not drawn)', 5.87),
  ('CCCCCC(O)CC=C1C(=O)C=CC1CC=CCCCC(=O)O (stereo not drawn)', 5.24);

A: O=C(O)CCCC=CCC1C(Cl)CC(O)C1C=CC(O)C1CCCCC1 (stereo not drawn)
B: O=C(O)CCCCCCC1C(=O)CCC1C=CC(O)COc1ccccc1 (stereo not drawn)
Problem: Input pair: A , B . Output: entry with lower pKi. # answer = label of selected item
Solution: B
(B: 6.38, A: 8.74)

###

- MEASUREMENT TARGET: Prostaglandin F2-alpha receptor (Human)
- Sequence (P43088 whole entry): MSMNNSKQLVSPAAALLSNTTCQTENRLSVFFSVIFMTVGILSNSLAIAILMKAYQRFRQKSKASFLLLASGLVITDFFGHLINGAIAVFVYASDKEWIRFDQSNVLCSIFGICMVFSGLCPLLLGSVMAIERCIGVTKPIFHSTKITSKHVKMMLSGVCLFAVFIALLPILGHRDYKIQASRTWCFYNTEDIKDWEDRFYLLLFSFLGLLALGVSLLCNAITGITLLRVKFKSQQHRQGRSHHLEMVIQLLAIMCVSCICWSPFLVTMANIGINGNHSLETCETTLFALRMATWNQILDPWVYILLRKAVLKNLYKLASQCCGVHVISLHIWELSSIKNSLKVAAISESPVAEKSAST
pKi: −log10 of the molar value.
MEASUREMENT TYPE: pKi

A: CCCCC(C)(O)C/C=C/[C@H]1[C@H](O)CC(=O)[C@@H]1CCCCCCC(=O)OC (stereo not given in full)
B: CS(=O)(=O)NC(=O)CCCC=CCC1C(=O)CC(O)C1C=CC(O)COc1ccccc1 (stereo not given)
C: CCCCC[C@H](O)/C=C/[C@H]1[C@H](O)CC(=O)[C@@H]1C/C=C\CCCC(=O)O
D: CC#CCC(C)[C@H](O)/C=C/[C@@H]1[C@H]2C/C(=C/CCCC(=O)O)C[C@H]2C[C@H]1O (stereo not given in full)
Problem: Give the order of the entries above, sorted from least to greatest pKi. Give the order by naming the labels one after another as requested.
Solution: A, D, B, C

###

Heads up, these compounds all have Ki values measured for Solute carrier organic anion transporter family member 2A1 (Homo sapiens).
MEASUREMENT TYPE: Ki (nM)

A: O=C(O)CCC/C=C\C[C@H]1[C@@H]2CCC(O2)[C@H]1CNNC(=O)Nc1ccccc1 [SQ 29548]
B: O=C(O)CCCCCCC1C(=O)CCC1C=CC(O)COc1ccccc1 (centres undefined) [CAS_80558-61-8]
Problem: Input pair: A , B . Output: entry with lower Ki. # answer = label of selected item
Solution: A
(A: 4.1 nM, B: 343 nM)
